System: benzodiazepine receptor
PROCEDURE DETAILS: in vivo inhibition of 3H-flunitrazepam binding to benzodiazepine receptors in mouse forebrain
STUDY CONDITIONS: mice, usually subcutaneous, 3H-flunitrazepam i.v. 15 min later, killed after further 20 min
QUANTITY MEASURED: inhibition of 3H-flunitrazepam binding, ED50 (in vivo) (mg/kg)
I only need the number, in mg/kg, no unit after it.

Looking up CCCOc1cccc2[nH]c3cnc(-c4nc(CC)no4)c(COC)c3c12 , I found its inhibition of 3H-flunitrazepam binding, ED50 (in vivo) recorded as 1.4

Looking up CCc1noc(-c2cc3c(cn2)[nH]c2ccc(C#CCN(C)C)cc23)n1 , I found its inhibition of 3H-flunitrazepam binding, ED50 (in vivo) recorded as 7.9

Looking up CCc1noc(-c2ncc3[nH]c4cccc(OC5CCC5)c4c3c2COC)n1 , I found its inhibition of 3H-flunitrazepam binding, ED50 (in vivo) recorded as 0.6

Looking up CCc1noc(-c2ncc3[nH]c4cccc(OC(C)C)c4c3c2COC)n1 , I found its inhibition of 3H-flunitrazepam binding, ED50 (in vivo) recorded as 0.2

Looking up CCc1noc(-c2ncc3[nH]c4cccc(OC(C)C)c4c3c2C)n1 , I found its inhibition of 3H-flunitrazepam binding, ED50 (in vivo) recorded as 0.4

Looking up CCc1nc(-c2ncc3[nH]c4cccc(OCc5ccccc5)c4c3c2COC)no1 , I found its inhibition of 3H-flunitrazepam binding, ED50 (in vivo) recorded as 1.0

Looking up COCc1c(-c2nc(C)no2)ncc2[nH]c3cccc(OCc4ccccc4)c3c12 , I found its inhibition of 3H-flunitrazepam binding, ED50 (in vivo) recorded as 0.9

Looking up CCOCc1cccc2[nH]c3cnc(-c4nc(CC)no4)c(C)c3c12 , I found its inhibition of 3H-flunitrazepam binding, ED50 (in vivo) recorded as 0.4

Looking up CCc1noc(-c2ncc3[nH]c4cccc(OC5C=CCCC5)c4c3c2COC)n1 (stereo not drawn) , I found its inhibition of 3H-flunitrazepam binding, ED50 (in vivo) recorded as 0.75
